- Tested on: SIRPα signalling induced by A549 cells
- testDescription: Assay B: SIRPα signalling assay using A549 cells
- Format: cell-based
- runConditions: Homo sapiens, 48 h compound incubation, Jurkat PathHunter SIRPaV1 reporter cells, read-out: Inhibition of SIRPα signalling induced by A549 cells: IC50
- Text: Two cell types are independently used: the Raji cell line (lymphoblast-like human cell line derived from B lymphocytes from a Burkitt's lymphoma patient in 1963) and A549 cells (adenocarcinoma human alveolar basal epithelial cells). […]
Some compounds, each annotated with its measured pIC50.
Conceptually, pIC50 converts a concentration in mol/L into minus its log10.

Cn1cnnc1C1CCN(c2c(-c3ccc(F)nc3)ccc(C(F)(F)F)c2C#N)CC1	7.72

(Q) Value lookup for pIC50; key = CC(C)Oc1ccc(C#N)c(N2CCC(c3nncn3C)CC2)c1-c1ccc(F)nc1
(A) 8.05

(Q) Value lookup for pIC50; key = Cn1cnnc1C1(F)CCN(c2c(C#N)cc(C(F)(F)F)cc2-c2cnc3nn(C(F)(F)F)cc3c2)CC1
(A) 8.05

(Q) Value lookup for pIC50; key = COc1cc(-c2cc(C(F)(F)F)cc(C#N)c2N2CCC(F)(c3nncn3C)CC2)cnn1
(A) 6.84

(Q) Value lookup for pIC50; key = Cn1cnnc1C1(F)CCN(c2c(C#N)cc(C(F)(F)F)cc2-c2ccc(F)nc2)CC1
(A) 7.92

(Q) Value lookup for pIC50; key = Cn1cnnc1C1(F)CCN(c2c(-c3ccc(F)nc3)ccc(Cl)c2C#N)CC1
(A) 7.92

(Q) Value lookup for pIC50; key = Cn1cnnc1C1(F)CCN(c2c(C#N)cc(Cl)cc2-c2cnc3nn(C(C)(C)C)cc3c2)CC1
(A) 8.05

(Q) Value lookup for pIC50; key = Cn1cnnc1C1CCN(c2c(C#N)cc(F)cc2-c2cnc3nn(C(C)(C)C)c(Cl)c3c2)CC1
(A) 8.10

###

- Tested on: SIRPα signalling induced by Raji cells
- testDescription: Assay B: SIRPα signalling assay using Raji cells
- Type: cell-based
- runConditions: Homo sapiens, 48 h compound incubation, Jurkat PathHunter SIRPaV1 reporter cells, read-out: Inhibition of SIRPα signalling induced by Raji cells: IC50
recordedEndpoint: IC50 (µM)
Dear colleague, please return just the value in µM, with no unit written.

Cn1cnnc1C1CCN(c2c(-c3cnc4nn(C(C)(C)C)cc4c3)ccc(C(F)(F)F)c2C#N)CC1 [Example 32]	0.07
Cn1cnnc1C1(F)CCN(c2c(C#N)cc(Cl)cc2-c2ccc(F)nc2)CC1 [Example 18]	0.036
Cn1cnnc1C1(F)CCN(c2c(C#N)cc(C(F)(F)F)cc2-c2cnc3nc(C(C)(C)C)nn3c2)CC1 [Example 2]	0.014

Kindly review the next molecule as well.
(Q) Value lookup for IC50; key = COc1ccc(C#N)c(N2CCC(c3nncn3C)CC2)c1-c1ccc(F)nc1 [Example 8]
(A) 0.044

###

- testDescription: Assay C: Permeability in CACO-2 cells
- Assay type: in vitro ADME
- runConditions: human; Caco-2, apical to basolateral, pH 7.2
recordedEndpoint: Papp A→B (×10⁻⁶ cm/s)
Dear colleague, please return just the value in ×10⁻⁶ cm/s, with no unit written.

Look over these answered cases.
Cn1cnnc1C1CCN(c2c(C#N)cc(Cl)cc2-c2ccc(F)nc2)CC1	23
Cn1cnnc1C1CCN(c2c(-c3ccc(F)nc3)ccc(F)c2C#N)CC1	9.6
Cn1cnnc1C1(F)CCN(c2c(C#N)cc(F)cc2-c2cnc3nn(C(C)(C)C)cc3c2)CC1	7.5
Cn1cnnc1C1(F)CCN(c2c(C#N)cc(C(F)(F)F)cc2-c2cnc3nn(C(F)(F)F)cc3c2)CC1	5.7
Cn1cnnc1C1(F)CCN(c2c(C#N)cc(C(F)(F)F)cc2-c2ccc(F)nc2)CC1	40.5

(Q) Value lookup for Papp A→B; key = Cn1cnnc1C1CCN(c2c(C#N)ccc(OCC3CC3)c2-c2ccc(F)nc2)CC1
(A) 28

(Q) Value lookup for Papp A→B; key = COc1ccc(-c2ccc(F)nc2)c(N2CCC(c3nncn3C)CC2)c1C#N
(A) 5.6

(Q) Value lookup for Papp A→B; key = Cn1cnnc1C1CCN(c2c(C#N)ccc(OCc3ccccc3)c2-c2ccc(F)nc2)CC1
(A) 19

(Q) Value lookup for Papp A→B; key = COC(=O)c1cc(C#N)c(N2CCC(c3nncn3C)CC2)c(-c2ccc(F)nc2)c1
(A) 5.3

(Q) Value lookup for Papp A→B; key = Cn1cnnc1C1(F)CCN(c2c(-c3ccc(F)nc3)ccc(Cl)c2C#N)CC1
(A) 34

(Q) Value lookup for Papp A→B; key = Cn1cnnc1C1CCN(c2c(-c3cnc4nn(C(C)(C)C)cc4c3)ccc(C(F)(F)F)c2C#N)CC1
(A) 0.2

(Q) Value lookup for Papp A→B; key = Cn1cnnc1C1(F)CCN(c2c(C#N)cc(C(F)(F)F)cc2-c2cnc3nc(C4(C)CC4)nn3c2)CC1
(A) 4.8

###

Some compounds, each annotated with its measured Papp A→B.
- testDescription: Assay C: Permeability in CACO-2 cells
- Assay type: in vitro ADME
- runConditions: human; Caco-2, apical to basolateral, pH 7.2
Answer format: number, then unit.

(Q) Value lookup for Papp A→B; key = Cn1cnnc1C1(F)CCN(c2c(-c3cnc4nn(C(C)(C)C)cc4c3)ccc(C(F)(F)F)c2C#N)CC1 [Example 30]
(A) 1.7 ×10⁻⁶ cm/s

(Q) Value lookup for Papp A→B; key = COc1cc(-c2cc(C(F)(F)F)cc(C#N)c2N2CCC(F)(c3nncn3C)CC2)cnn1 [Example 23]
(A) 13 ×10⁻⁶ cm/s

(Q) Value lookup for Papp A→B; key = Cn1cnnc1C1CCN(c2c(C#N)ccc(OC(F)F)c2-c2ccc(F)nc2)CC1 [Example 13]
(A) 9.1 ×10⁻⁶ cm/s

(Q) Value lookup for Papp A→B; key = Cn1cnnc1C1(F)CCN(c2c(C#N)cc(F)cc2-c2cnc3nn(C(C)(C)C)c(Cl)c3c2)CC1 [Example 24]
(A) 46 ×10⁻⁶ cm/s

###

Measurement record for UniProt:Q16769; quantity recorded: pIC50.
Sequence (Q16769 29-361): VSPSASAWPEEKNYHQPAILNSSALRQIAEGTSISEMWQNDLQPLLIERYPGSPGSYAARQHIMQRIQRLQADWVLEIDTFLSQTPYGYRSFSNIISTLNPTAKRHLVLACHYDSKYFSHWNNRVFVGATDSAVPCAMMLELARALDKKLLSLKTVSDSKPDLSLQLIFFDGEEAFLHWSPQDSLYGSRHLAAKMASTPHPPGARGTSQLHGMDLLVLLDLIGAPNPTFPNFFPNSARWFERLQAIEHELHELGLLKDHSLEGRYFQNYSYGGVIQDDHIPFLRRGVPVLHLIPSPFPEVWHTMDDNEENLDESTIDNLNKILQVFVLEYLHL
Conceptually, pIC50 converts a concentration in mol/L into minus its log10.

Look over these answered cases.
Cn1cnnc1C1(F)CCN(c2c(-c3ccc(F)nc3)ccc(Cl)c2C#N)CC1	8.70
Cn1cnnc1C1CCN(c2c(C#N)cc(Cl)cc2-c2ccc(F)nc2)CC1	8.10

(Q) Value lookup for pIC50; key = Cn1cnnc1C1(F)CCN(c2c(C#N)cc(C(F)(F)F)cc2-c2ccnnc2)CC1
(A) 8.52

(Q) Value lookup for pIC50; key = Cn1cnnc1C1CCN(c2c(C#N)cc(F)cc2-c2cnc3nn(C(C)(C)C)c(Cl)c3c2)CC1
(A) 9.00

(Q) Value lookup for pIC50; key = Cn1cnnc1C1CCN(c2c(-c3ccc(F)nc3)ccc(F)c2C#N)CC1
(A) 7.96

(Q) Value lookup for pIC50; key = Cn1cnnc1C1(F)CCN(c2c(C#N)cc(Cl)cc2-c2ccc(F)nc2)CC1
(A) 8.40

(Q) Value lookup for pIC50; key = Cn1cnnc1C1(F)CCN(c2c(-c3cnc4nn(C(C)(C)C)cc4c3)ccc(C(F)(F)F)c2C#N)CC1
(A) 9.00

(Q) Value lookup for pIC50; key = Nc1nnc(C2CCN(c3ncccc3-c3ccc(F)nc3)CC2)s1 [Prior art Compound 1095, reference compound]
(A) 6.59

###

- testDescription: Assay C: Permeability in CACO-2 cells
- Type: in vitro ADME
- runConditions: human; Caco-2, apical to basolateral, pH 7.2
- Procedure: Caco-2 cells (1-2×10^5 cells/1 cm^2 area) are seeded on filter inserts (Costar transwell polycarbonate or PET filters, 0.4 μm pore size) and cultured (DMEM) for 10 to 25 days. Compounds are dissolved in appropriate solvent (like DMSO, 1-20 mM stock solutions). […] The transport solution (TL) is applied to the apical or basolateral donor side for measuring A-B or B-A permeability (3 filter replicates), respectively. […]
Some compounds, each annotated with its measured Papp A→B.
Dear colleague, please return just the value in ×10⁻⁶ cm/s, with no unit written.

Look over these answered cases.
CC(C)Oc1ccc(C#N)c(N2CCC(c3nncn3C)CC2)c1-c1ccc(F)nc1	30
Cn1cnnc1C1(F)CCN(c2c(-c3ccc(F)nc3)ccc(C(F)(F)F)c2C#N)CC1	53
Cn1cnnc1C1CCN(c2c(C#N)cc(F)cc2-c2cnc3nn(C(C)(C)C)c(Cl)c3c2)CC1	14

Kindly review the next compound as well.
(Q) Value lookup for Papp A→B; key = COc1ccc(-c2cnc3nn(C(C)(C)C)cc3c2)c(N2CCC(F)(c3nncn3C)CC2)c1C#N
(A) 0.8
